Tested on: Plasmodium falciparum
Assay: Antiplasmodial activity against chloroquine-sensitive Plasmodium falciparum F32-Tanzania by [3H]hypoxanthine uptake
Format: functional, organism-based
measurement.label: IC90 (µM)
State the answer as a number, implicitly in µM.

Previously resolved entries follow.
OC(c1cc(C(F)(F)F)nc2c(C(F)(F)F)cccc12)C1CCCCN1 (stereo not given)	0.354
C/C=C1/CN2[C@@H]([C@@H]3C(=O)N4c5ccccc5[C@@]56CCN7CC8=CCO[C@@H]3[C@@H]([C@H]45)[C@H]8C[C@H]76)C[C@@]34c5ccccc5N5C(=O)CC=C([C@H]1C[C@H]23)[C@H]54	9.54
O=C1C[C@@H]2OCC=C3CN4[C@@H](C5=C[C@@H]6[C@@H]7N(C5=O)c5ccccc5[C@@]75CCN7C/C(=C/CO)[C@@H]6C[C@H]75)C[C@]56c7ccccc7N1[C@H]5[C@@H]2[C@H]3C[C@H]46	3.23
C/C=C1/CN2[C@@H](C3=C[C@@H]4[C@@H]5N(C3=O)c3ccccc3[C@@]53CCN5C/C(=C/CO)[C@@H]4C[C@H]53)C[C@@]34c5ccccc5N5C(=O)CC=C([C@H]1C[C@H]23)[C@H]54	5.35

Now for the molecule whose IC90 we want.
Q: For CCN(CC)CCCC(C)Nc1ccnc2cc(Cl)ccc12 (stereo not given) , what is its reported IC90?
Ans: 0.063
